Parameter: Solubility. Scope: all listed entries.
Test: solubility of dye in liquid crystals E-8
Format: physicochemical
Conditions: in liquid crystals E-8 at 25° C.
measured.attribute: Solubility (% by weight)

| molecule | measured.attribute | recorded.number |
| --- | --- | --- |
| CCCCCC1CCC(c2nc3c(N)c4c(c(O)c3o2)C(=O)c2ccccc2C4=O)CC1 (stereo not shown) [No. 8] | Solubility | 4.7 |
| CCCCc1ccc(Nc2cccc3c2C(=O)c2cccc(Nc4ccc(CCCC)cc4)c2C3=O)cc1 [B, reference compound] | Solubility | 0.7 |
| CN(C)c1ccc(N=Nc2ccc(N=Nc3ccccc3)cc2)cc1 [A, reference compound] | Solubility | 1.1 |
| Nc1c2c(c(O)c3oc(C4CCCCC4)nc13)C(=O)c1ccccc1C2=O [C, reference compound] | Solubility | 0.4 |

----------
Assay: dichroic ratio of dye dissolved in liquid crystals (homogeneously aligned 10 micron cell)
Format: physicochemical
Conditions: liquid crystals E-8; Table 1 method: 1.0% by weight dye, 10 micron gap
Description: The dichroic ratio is determined as follows: The cell was placed in the light path of a spectro-photometer. Straight polarized light parallel to the alignment of the liquid crystals was applied to the cell, and the absorbance ([…] ) was measured. Furthermore, straight polarized light at right angles to the alignment of the liquid crystals was applied, and the absorbance ([…] ) was measured. The dichroic ratio was calculated from the following equation. [formula]
Parameter: Dichroic ratio in liquid crystals E-8. Scope: all listed entries.

| compound | Dichroic ratio in liquid crystals E-8 |
| --- | --- |
| CCCCCC1CCC(c2nc3cc4c(c(O)c3s2)C(=O)c2ccccc2C4=O)CC1 (stereo not shown) | 8.5 |
| CCCCCCCCCC1CCC(c2nc3c(N)c4c(c(O)c3o2)C(=O)c2cc(C)ccc2C4=O)CC1 (stereo not shown) | 10.2 |
| CCCCCC1CCC(c2nc3cc4c(c(O)c3o2)C(=O)c2ccc(CC(C)C)c(O)c2C4=O)CC1 (stereo not shown) | 8.1 |
| CCCCCCCCCC1CCC(c2nc3c(N)c4c(c(O)c3o2)C(=O)c2c(N)cccc2C4=O)CC1 (stereo not shown) | 8.2 |
| CC(CC[C@H]1CC[C@H](c2nc3c(N)c4c(c(O)c3o2)C(=O)c2c(N)ccc(O)c2C4=O)CC1)CC(C)(C)C (stereo partly shown) | 10.3 |
| CCCCCCCC1CCC(c2nc3c(N)c4c(c(O)c3o2)C(=O)c2ccc(C(=O)OCCCC)cc2C4=O)CC1 (stereo not shown) | 8.6 |
| CCCCCCCC1CCC(c2nc3cc4c(c(O)c3o2)C(=O)c2c(NC)ccc(NC)c2C4=O)CC1 (stereo not shown) | 9.2 |
| CCCCCC1CCC(c2nc3cc4c(c(O)c3o2)C(=O)c2c(O)ccc(O)c2C4=O)CC1 (stereo not shown) | 9.8 |
| CCCCCC1CCC(c2nc3cc4c(c(NC)c3o2)C(=O)c2ccccc2C4=O)CC1 (stereo not shown) | 6.9 |
| CCCCC[C@H]1CC[C@H](c2nc3cc4c(c(O)c3o2)C(=O)c2ccccc2C4=O)CC1 | 7.2 |
| CC(CCC1CCC(c2nc3c(O)c4c(c(O)c3o2)C(=O)c2ccccc2C4=O)CC1)CC(C)(C)C (stereo not shown) | 8.1 |
| CC(C)(C)c1ccc(C2CCC(c3nc4c(N)c5c(c(O)c4o3)C(=O)c3ccccc3C5=O)CC2)cc1 (stereo not shown) | 10.1 |
| CCCCCCCCCCCCC1CCC(c2nc3c(N)c4c(c(O)c3o2)C(=O)c2ccccc2C4=O)CC1 (stereo not shown) | 9.3 |
| CCCCOCCC1CCC(c2nc3c(Br)c4c(c(O)c3o2)C(=O)c2ccccc2C4=O)CC1 (stereo not shown) | 6.8 |
| CCCCc1ccc(OC(=O)C2CCC(c3nc4c(N)c5c(c(O)c4o3)C(=O)c3c(N)ccc(O)c3C5=O)CC2)cc1 (stereo not shown) | 9.2 |
| CCCCC1CCC(c2nc3c(N)c4c(c(O)c3o2)C(=O)c2ccccc2C4=O)CC1 (stereo not shown) | 9.5 |
